Assay Info: NCI Yeast Anticancer Drug Screen. Data for the rad50 strain (AID 155);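 further: 0% = growth of vehicle-only cultures of the same strain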
Measurement Conditions: S. cerevisiae rad50 strain growth inhibition; at 100.0 µM; stronger effect = higher value
About 79,000 compounds went through this panel and 15% of them were active in at least one assay; those are over-represented in the sample as a whole.
Please use Met whenever growth inhibition is not below 80%, and Not met whenever it is.

- O=C(O)C1CCCCC1c1c2ccc(=O)c(O)c-2oc2c(O)c(O)ccc12 (stereo not given): Not met
- COc1cc2ccc(/C=C\[N+](=O)[O-])cc2cc1OC: Met
- CNC(=O)OCc1c(COC(=O)NC)c(-c2ccc(-c3ccccc3)cc2)n(C)c1C: Not met
- CCCCCCCCCCCCCCCCCCN(C)CC(COP(=O)([O-])OCC[N+](C)(C)C)OC (stereo not given): Met

---

Assay Info: NCI Yeast Anticancer Drug Screen. Data for the mec2-1 strain (AID 157)
Measurement Conditions: S. cerevisiae mec2-1 strain, at 33.0 µM, stronger effect = higher value
Method: Growth inhibition of yeast strains with defined genetic alterations is measured as a screen for potential anti-cancer activity. Selected strains with alterations in DNA damage repair or cell cycle control were exposed to compounds and growth inhibition was measured relative to vehicle treated controls. The strain used in this assay is mec2-1
This is part of a sample that, as a whole, favours compounds with a hit. Of some 79,000 tested, about 15% had one in any assay.
Readout Label: growth inhibition (%)

- C#CCCCc1ccccc1: 31
- S=C(Nc1ccc(Cl)c(Cl)c1)SCc1ccc2c(c1)OCO2: 99
- O=C(Cc1csc2[n+]1C(=O)/C(=C/c1ccc(Cl)cc1)S2)Nc1ccccc1: 39
- CC(/C=C/c1ccc(Cl)cc1)=N\NC(=S)NCC(C)C: -1
- Oc1ccc2ccccc2c1C(c1ccc(Cl)cc1)c1c(O)ccc2ccccc12: 56
- COc1cc(C(=O)/C=C/c2ccccc2O)ccc1O: 98

---

Assay Info: NCI Yeast Anticancer Drug Screen. Data for the wt2 strain (AID 169);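 further: 0% = growth of vehicle-treated yeast cultures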
Measurement Conditions: S. cerevisiae wt2 strain growth inhibition; at 100.0 µM; stronger effect = higher value
About 79,000 compounds went through this panel and 15% of them were active in at least one assay; those are over-represented in the sample as a whole.
Please use MET whenever growth inhibition is not below 90%, and NOT MET whenever it is.

* O=[N+]([O-])c1cccc([N+](=O)[O-])c1S(=O)(=O)c1ccccc1 | MET
* CC(/C=C/c1ccc(Cl)cc1)=N\NC(=S)NCC(C)C | NOT MET
* Nc1nc(Cl)c(Cl)c(Cl)n1 | MET
* CCCCCCCC1(N=[N+]=[N-])C(=O)c2ccccc2N(C)C1=O (stereo not given) | NOT MET
* CCCCCCCCCCCC(=O)N(C)C | MET
* CN(N=O)N1C(=O)SCC(c2ccccc2)(c2ccccc2)C1=O | NOT MET
* CCOC(=O)C1=C(C(=O)c2ccccc2)C(c2ccccc2[N+](=O)[O-])C(C(=O)c2ccccc2)=C(C(=O)OCC)N1 | NOT MET
* CC(C)=CC(=O)O[C@@H]1CC(C)(C)CC2C3=CCC4[C@]56CC[C@](O)(OC5)C(C)(C)C6CC[C@@]4(C)C3(C)CC[C@]21C(=O)O (stereo not given in full) | MET
* CSc1nc(=S)[nH]c2c1c(C)nn2-c1ccccc1 | NOT MET

---

Assay Info: NCI Yeast Anticancer Drug Screen. Data for the bub3 strain (AID 167)
Measurement Conditions: S. cerevisiae bub3 mutant strain, at 3.7 µM, stronger effect = higher value
About 79,000 compounds went through this panel and 15% of them were active in at least one assay; those are over-represented in the sample as a whole.
Catalogue of growth inhibition readings, one per entry.
Readout Label: growth inhibition (%)

- CC(C)c1ccccc1NC(=O)/C(Cl)=C(\Cl)C(=O)O: 1
- CN=C(N)N/N=C/c1ccc2c(c1)Cc1ccccc1-2: -4
- COc1cc2ccc(/C=C\[N+](=O)[O-])cc2cc1OC: -21
- CC[C@@]1(O)C(=O)OCc2c1cc1n(c2=O)Cc2cc3c(CN(C)C)c(O)ccc3nc2-1: -1
- NNc1c(F)c(F)cc(F)c1F: -18
- NC1=NS(=O)(=O)N=C(N)C1=Cc1ccc([N+](=O)[O-])o1: -11

---

Assay Info: NCI Yeast Anticancer Drug Screen. Data for the rad14 strain (AID 159);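 further: 0% = growth of vehicle-treated control cultures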
Measurement Conditions: S. cerevisiae rad14 strain growth inhibition; at 1.2 µM
About 79,000 compounds went through this panel and 15% of them were active in at least one assay; those are over-represented in the sample as a whole. The source made the active and inactive calls. Rule as the data show it: active = growth inhibition above about 70%; inactive = the rest.
Outcome codes: active, inactive

- Cn1c(=O)c(-c2ccccc2)c(N=[N+]=[N-])c2ccccc21: inactive
- Clc1ccc(SC(/C=C/NNC2=NC(c3ccccc3)C(c3ccccc3)=NN2)c2ccccc2)cc1 (configuration not stated): inactive
- O=[N+]([O-])c1cccc2nc3ccccc3c(NCCCN3CCOCC3)c12: active
- Cc1c(C(=O)C(=O)c2ccccc2)c(C)c(C(=O)C(=O)c2ccccc2)c(C)c1C(=O)C(=O)c1ccccc1: inactive
- O=C1C2C=CC1C1C(=O)OC(=O)C21 (configuration not stated): inactive
- CC[n+]1ccc2c(C)c3[nH]c4ccc(O)cc4c3c(C)c2c1: inactive
- CC(C)/C(Cl)=N\OC(=O)Nc1ccc(F)cc1: inactive
- CNC1C(OC2C(OC3C(O)C(O)C(N=C(N)N)C(O)C3N=C(N)N)OC(C)C2(O)CO)OC(CO)C(O)C1O (configuration not stated): inactive
- CC1(C)[C@@H]2CC[C@]1(C)[C@H](OC(=O)CSC#N)C2: inactive
- Cc1c(C2=C(Br)C(=O)N(C)C2=O)c(=O)n(C)c(=O)n1C: inactive
- COc1ccc(C2c3cc4c(cc3OC(C)(O)C2C)OCO4)c(OC)c1 (configuration not stated): inactive
- CCN(CC)[P+](c1ccccc1O)(N(CC)CC)N(CC)CC: inactive
- CC(C)/C(Cl)=N\OC(=O)Nc1ccccc1F: inactive
- O=C1C=CC(=C(c2ccccc2)c2ccccc2)c2ccccc21: inactive
- O=C1Nc2ccc(Cl)c(I)c2C1=O: inactive
- O=c1c2ccccc2ncn1COCc1ccccc1: inactive
- Cc1ccc(Nc2nc3c(=O)n(C)c(=O)n(C)c3nc2Nc2ccc(C)cc2)cc1: inactive
- COc1ccc2c(c1)C(=O)c1ccccc1C2: inactive
- Fc1ccc(NC(=S)SCc2ccc(Cl)c(Cl)c2)cc1F: inactive
- CC(C)NC(=O)OCc1c(COC(=O)NC(C)C)c(-c2ccc(Cl)c(Cl)c2)n2c1CCC2: inactive
- N#C/C(=C\c1cccc(OCc2ccccc2)c1)c1ccc([N+](=O)[O-])cc1: inactive
- N#CC(C(=O)Nc1ccccc1)C1=C(Cl)C(=O)c2ccccc2C1=O (configuration not stated): inactive

---

Catalogue of growth inhibition readings, one per entry.
Assay Info: NCI Yeast Anticancer Drug Screen. Data for the wt2 strain (AID 169);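 further: 0% = growth of vehicle-treated yeast cultures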
Measurement Conditions: S. cerevisiae wt2 strain growth inhibition; at 33.0 µM; stronger effect = higher value
The panel holds about 79,000 compounds, 15% with a hit somewhere; the sample as a whole holds those more often.
Readout Label: growth inhibition (%)

• CO[C@H]1C[C@](C)(O)Cc2cc3c(c(O)c21)C(=O)c1c(O)cc2c(c1C3=O)O[C@@H]1O[C@@]2(C)[C@H](O)[C@@H](N(C)C)[C@@H]1O = -19
• Cc1c(C(=O)C(=O)c2ccccc2)c(C)c(C(=O)C(=O)c2ccccc2)c(C)c1C(=O)C(=O)c1ccccc1 = -6
• Cc1cc(O)cc(O)c1N=Nc1ccc([N+](=O)[O-])cc1 = 26
• CN(C)C[C@H]1CC[C@@H](CN(C)C)C1=O = 7
• NC(N)=N/N=C\c1c2ccccc2cc2ccccc12 = -35
• Cc1c(C(Cc2ccccc2N(C)C(=O)/C=C\C(=O)O)c2c[nH]c3ccccc23)c2ccccc2n1C (stereo not drawn) = 3
• CC(C)(C)c1nc2c(o1)C(=O)c1ccccc1C2=O = 72
• CC(C)(CN1CCCCC1)C(=O)CC(SCCS(=O)(=O)O)c1ccc(Br)cc1 (stereo not drawn) = 24
• CSC(=S)Nc1cc(C)ccn1 = 23
• Cn1c(N)nc(-c2ccc(Cl)cc2)c1SSc1c(-c2ccc(Cl)cc2)nc(N)n1C = 71
• C/C(=N/NC(=S)N1CCCCCC1)c1cccc(/C(C)=N\NC(=S)N2CCCCCC2)n1 = 8
• O=C1Nc2ccccc2/C1=C/COc1ccccc1 = 88
• CCCCOC(=O)N[C@H]1CCc2cc(OC)c(OC)c(OC)c2-c2ccc(SC)c(=O)cc21 = 29
• O=c1c2ccccc2ncn1COCc1ccccc1 = -3
• c1ccc2c(c1)sc1cc3ccncc3cc12 = 10
• CC(O)C(O)C(O)C(/C=N\Nc1ccccc1)=N/Nc1ccccc1 (stereo not drawn) = 38
• C[S+](C)C1(c2ccccc2)C(=O)c2ccccc2C1=O = 6
• O=C1c2cc([N+](=O)[O-])ccc2-c2cccc(F)c21 = 17
• CNC1C(OC2C(OC3C(O)C(O)C(N=C(N)N)C(O)C3N=C(N)N)OC(C)C2(O)CO)OC(CO)C(O)C1O (stereo not drawn) = 34
• CCN(CC)CCC(=O)c1ccc(Oc2ccc(F)cc2)cc1 = 71
• Clc1ccccc1C1OC1c1ccccc1Cl (stereo not drawn) = -46
• Nc1ccc2c(c1)C(=O)c1cccc(N)c1C2=O = 56
• FC(F)(F)c1nc2nc(Cl)c(Cl)nc2n1CCCN1CCOCC1 = 20
• CN1c2ccc(Cl)cc2C(=O)NC1c1ccc([N+](=O)[O-])s1 (stereo not drawn) = 97
• O=C1OC(=O)C2CCCC3CCCC1C32 (stereo not drawn) = 89
• COc1cc(C2SCC(=O)N2c2nnc(C(F)(F)F)s2)cc(OC)c1OC (stereo not drawn) = -4
• Fc1ccc(NC(=S)SCc2ccc3c(c2)OCO3)cc1F = 99
• CCCCCCCCCCCC1=C(O)C(=O)C=C(O)C1=O = 96
• CCC/C(Cl)=N\OC(=O)Nc1cccc(C(F)(F)F)c1 = 83
• Cc1cc(CO)c(O)c(CNCc2cc(C)cc(CO)c2O)c1 = -8
• COc1cc2c(c(OC)c1OC)-c1c(cc3c(c1OC)OCO3)CC(C)C(C)(O)C2OC(=O)c1ccccc1 (stereo not drawn) = 33
• [O-][n+]1c2ccc(O)cc2nc2ccc(Cl)cc21 = 46
• CC1=C(C)Cc2c(O)ccc(O)c2C1 = 3
• Cc1ccc(-n2cc(-c3ccc(Cl)cc3)c(C#N)c2N)cc1 = 3
• CCCCCCCCCCCCCCC(C(=O)[O-])[n+]1ccccc1 (stereo not drawn) = 7
• CC(=O)N/N=C/C(C)(C)C(C)(C)/C=N/NC(C)=O = 39
• COc1cc(C2C3=C(COC3=O)Oc3cc4c(cc32)OCO4)ccc1O (stereo not drawn) = -1
• CC[C@@]1(O)C(=O)OCc2c1cc1n(c2=O)Cc2cc3c(N)cccc3nc2-1 = -3
• CC(C)c1cc(C(C)C)c(O)c(C([O-])[O-])c1.CC(C)c1cc(C(C)C)c(O)c(C([O-])[O-])c1.CC(C)c1cc(C(C)C)c(O)c(C([OH2+])[OH2+])c1.CC(C)c1cc(C(C)C)c(O)c(C([OH2+])[OH2+])c1.[Cu+2].[Cu+2].[OH3+].[OH3+] = 70
• O=[N+]([O-])c1cc(CCl)ccc1CCl = 96
• COc1ccccc1N=NC(C(=O)c1ccccc1)C(=O)c1ccccc1 = 92
• NC1=NS(=O)(=O)N=C(N)C1=Cc1ccc([N+](=O)[O-])o1 = -6
• C[CH2][Sn]([CH2]C)([O]C(=O)C(OC(C)=O)c1ccccc1)[O]C(=O)C(OC(C)=O)c1ccccc1 (stereo not drawn) = 57
